The reported numbers originate from patent US7671258B2.

Assay: Cryo-transmission electron microscopy of aqueous peptide solutions (self-assembly)
Format: physicochemical
Conditions: Cryo-TEM, aqueous solution 5 mg/ml, pH 7
Residues, ends and D or L forms follow the SMILES beside them.
MEASURED_PROPERTY: morphology of the self-assemblies

q: Return reported morphology of the self-assemblies; argument: CC(=O)N[C@H](C(=O)N[C@H](C(=O)N[C@H](C(=O)N[C@H](C(=O)N[C@H](C(=O)N[C@H](C(=O)N[C@@H](CC(=O)O)C(=O)O)C(C)C)C(C)C)C(C)C)C(C)C)C(C)C)C(C)C [V6D, [Acetyl]-VVVVVVD-CO2] (Ac-VVVVVVD-OH)
a: cylindrical morphologies

q: Return reported morphology of the self-assemblies; argument: CC(=O)N[C@H](C(=O)N[C@H](C(=O)N[C@H](C(=O)N[C@H](C(=O)N[C@H](C(=O)N[C@H](C(=O)N[C@@H](CC(=O)O)C(=O)N[C@@H](CC(=O)O)C(=O)O)C(C)C)C(C)C)C(C)C)C(C)C)C(C)C)C(C)C [V6D2, [Acetyl]-VVVVVVDD-CO2] (Ac-VVVVVVDD-OH)
a: cylindrical morphologies

q: Return reported morphology of the self-assemblies; argument: CC(=O)N[C@@H](C)C(=O)N[C@@H](C)C(=O)N[C@@H](C)C(=O)N[C@@H](C)C(=O)N[C@@H](C)C(=O)N[C@@H](C)C(=O)N[C@@H](CC(=O)O)C(=O)O [A6D, [Acetyl]-AAAAAAD-CO2] (Ac-AAAAAAD-OH)
a: cylindrical morphologies
